Reference source for all entries: ChEMBL document CHEMBL3988442

Kindly state Percent Effect for each of the entries shown.
Test system: Wolbachia pipientis
Test: Anti-Wolbachia Cell-Based Screen
Assay type: functional
Parameters: scale not given: in the data most compounds retested in dose-response had high values
Conditions: 5 µM
The campaign covered roughly 48,000 compounds. About 13,000 (27%) showed an effect of 50% or more. The list shows a part of the results.
Numbers only, in %.

Some compounds with recorded Percent Effect:
CCc1nnc(CN2CCN(C(C)=O)CC2)o1 = -9.857
Cc1ncc2c(n1)CN(CC(=O)N1CCc3sccc3C1)CC2 = -8.865
CCn1cnnc1C1CCN(C(=O)c2cccc(N(C)C)c2)CC1 = 182
Cc1nn(C)c2ncc(NC(=O)N(C)Cc3cnn(C)c3)cc12 = 3.959

Hello, I would appreciate it if you could give Percent Effect for each entry below.
1. Cc1ncc2c(n1)CN(CC(=O)Nc1ccncc1)CC2
2. CCn1cnnc1C1CCN(C(=O)CC(C)n2cccc2)CC1 (configuration not stated)
3. CCN1CCN(C(=O)c2ccnc(N(C)C)c2)CC1
4. Cc1ncc2c(n1)CN(CC(=O)Nc1nnc(C)s1)CC2

-- reply
1: 3.82; 2: -3.98; 3: -10.63; 4: 120.8

====

Test system: Wolbachia pipientis
Experiment: Anti-Wolbachia Cell-Based Screen
Type: functional
Set-up: scale not given: in the data most compounds retested in dose-response had high values
Conditions: 5 µM
In all, about 48,000 compounds went through this assay and about 13,000 (27%) showed an effect of 50% or more. This is one part of the list.
Give measured Percent Effect for each item. Keep answers brief.
Numbers only, in %.

# example entries with known answers
CCN1CCCC1(C)c1nc(C)cc(N)n1 (stereo not drawn) = 113.3
Cc1cc(N2CCC3(CCC(=O)N(CCO)C3)CC2)nc(N(C)C)n1 = 21.48
Cc1cccc(CN2C(=O)CCC23CCN(Cc2ccoc2)CC3)n1 = 102.5

State recorded Percent Effect for all listed compounds.
1. CC(C)N1CC(C(=O)N2CCN(CCn3cccc3)CC2)CC1=O (stereo not drawn)
2. Cc1cccc(CN2C(=O)CCC23CCN(Cc2nccn2C)CC3)n1
3. Cc1cccnc1CN(C)CC1(O)CCCN(CC2CCCCC2)C1=O (stereo not drawn)

-- reply
1: 11.86; 2: 88.13; 3: 93.19

Would you mind listing Percent Effect for each of the following compounds?
1. COc1cnc(C2(O)CCN(C(=O)c3scnc3C)CC2)c(OC)n1
2. Cc1cscc1C(=O)Nc1cncnc1N(C)C
3. CCC(=O)N1CCC(O)(c2ncc(OC)nc2OC)CC1
4. CC1COCCN1C(=O)COc1ccc(Oc2ccccn2)cc1 (stereo not drawn)
5. CCc1nc2c(N3CCC4(CC3)CC(=O)N(CC)C4)ncnc2o1
6. O=C1CCC2(CCN(Cc3ccoc3)CC2)N1OCc1ccccc1F

-- reply
1. 77.74
2. -5.667
3. -0.9107
4. 102.9
5. -6.459
6. -6.682

Respectfully, I request Percent Effect for each entry included below.
1. COc1cnc(C2(O)CCN(C(=O)c3ccccn3)CC2)c(OC)n1
2. COCCN1CCCC1(C)c1nc(C)cc(N)n1 (stereo not drawn)
3. O=C(CCNc1ncc2c(n1)CCN2c1ccccc1)N1CCCC1
4. COCCN1CCCC12CCCN(c1nncs1)C2 (stereo not drawn)
5. COc1cnc(C2(O)CCN(C(=O)c3ccco3)CC2)c(OC)n1

-- reply
107.9
125.2
15.12
14.36
113.8

Below is a list of compounds. For each, state its recorded Percent Effect.
1. COc1cnc(C2(O)CCN(C(=O)c3cccnc3)CC2)c(OC)n1
2. c1coc(-c2nc3c(c(N4CCCN5CCC[C@H]5C4)n2)CCNCC3)c1
3. O=C(CCC(=O)Nc1ccccc1)NCC(=O)c1ccc(F)cc1F
4. Cc1cccnc1CNCC1(O)CCCN(CC2CCCCC2)C1=O (stereo not drawn)
5. Cc1cccc(CN2C(=O)CC[C@@H]3[C@H]2CCN3Cc2nccn2C)n1.O=C(O)C(F)(F)F.O=C(O)C(F)(F)F.O=C(O)C(F)(F)F
6. CC(C)(C)c1nnc(CN2CCN(S(C)(=O)=O)CC2)o1

-- reply
1. 2.765
2. -2.635
3. -8.283
4. -7.545
5. 16.26
6. 12.09

====

Test system: Wolbachia pipientis
Experiment: Anti-Wolbachia Cell-Based Screen
Assay type: functional
Set-up: scale not given: in the data most compounds retested in dose-response had high values
Conditions: 5 µM
Among all 48,000 compounds or so, about 13,000 (27%) showed an effect of 50% or more. Some of the results follow.
readoutKind: Percent Effect (%)
Answers are plain numbers, in %.

O=C(O)C(F)(F)F.O=C(c1cccnc1)N1CCC2(CCN(C(=O)c3ccco3)CC2)C1 = 98.34
O=C(Cn1cccnc1=O)NC(Cc1cccs1)c1ccccn1 (configuration not stated) = -8.701
Cc1nn(C)cc1CNCc1ccc(N(C)C)cc1 = 119.7
CNC(=O)c1cnc2n1CCN(Cc1cccnc1OC)C2 = -12.45

Could you report Percent Effect for every entry in the following list?
1. COc1ncccc1CN1Cc2nccn2CC(CN2CCCC2)C1 (configuration not stated)
2. Cc1ccc(N2CCC(C(O)c3cccs3)CC2)nn1 (configuration not stated)

-- reply
1: 87.46; 2: 12.98

====

System: Wolbachia pipientis
Experiment: Anti-Wolbachia Cell-Based Screen
Format: functional
Parameters: scale not given: in the data most compounds retested in dose-response had high values
Conditions: 5 µM
In all, about 48,000 compounds went through this assay and about 13,000 (27%) showed an effect of 50% or more. Some of the results follow.
readoutKind: Percent Effect (%)
Answers are plain numbers, in %.

O=C(c1ccnnc1)N1C[C@H]2CCC[C@@H](OCc3cccnc3)[C@@H]2C1 = -7.774

Hello, I would appreciate it if you could give Percent Effect for each entry below.
1. O=C(C1CCOCC1)N1C[C@H](OCc2cccnc2)[C@H]2COC[C@H]21
2. Cl.Cl.Cn1cc(C(=O)NCc2cncc3c2CCN(CC2CC2)C3)cn1
3. CC(C)N1CCc2c(CNC(=O)c3nccn3C)cncc2C1.Cl.Cl.Cl
4. Cc1ccc(C(=O)N2C[C@H](OCc3cccnc3)[C@H]3COC[C@H]32)cn1
5. Cl.Cl.Cn1cc(C(=O)NCc2cncc3c2CCN(c2ccccn2)C3)cn1
6. Cc1nc(CO[C@H]2CN(C(=O)c3cccnc3)[C@@H]3COC[C@H]23)cs1

-- reply
[112.8, 108.8, 1.546, 93.92, 91.67, -38.06]

Batch request: Percent Effect per item, same order as input.
1. O=C(c1ccncn1)N1CCO[C@H]2[C@@H](OCc3cccnc3)CC[C@@H]21
2. N#Cc1ccc(C(=O)N2C[C@H](OCc3cccnc3)[C@H]3COC[C@H]32)cc1

-- reply
1. -20.63
2. 101.1

====

Test system: Wolbachia pipientis
Assay: Anti-Wolbachia Cell-Based Screen
Assay type: functional
Parameters: scale not given: in the data most compounds retested in dose-response had high values
Settings: 5 µM
The campaign covered roughly 48,000 compounds. About 13,000 (27%) showed an effect of 50% or more. The list shows a part of the results.
I'd be grateful if you could share measured Percent Effect for these entries.

Cn1nc(Cl)cc1C(=O)N1CCC(C(=O)c2nc3ccccc3s2)CC1 = 97.43%
Cc1nc(CN(C)C2CCN(CCCOc3ccccc3C)C2)no1 (configuration not stated) = 109.1%
CNS(=O)(=O)c1cccc(C(C)NCc2ccc(F)c(F)c2)c1 (configuration not stated) = 18.96%
Cc1nc(CSc2nc(=O)ccn2C(C)C)cs1 = -10.57%
CCOc1ccccc1C(CC(=O)Nc1nc(C)cs1)NC(C)=O (configuration not stated) = 0.8837%
Cc1cccc(OCCCN2CCC(N(C)Cc3noc(C)n3)C2)c1 (configuration not stated) = 112.7%
CCn1cc(CN2CCC(C3CCN(C)CC3)CC2)cc1C#N = 8.542%
Cc1nc(CN(C)C2CCN(CCCOc3ccc(F)cc3)C2)no1 (configuration not stated) = 112.3%

Need Percent Effect for each of these compounds.
1. CNc1cc(C2CN(Cc3cccnc3NC)CCO2)nc(C)n1 (configuration not stated)
2. CCOCc1nnc(NCc2ccsc2)o1
3. CCn1ncnc1C(C)NC(=O)COc1ccc(Cl)cc1Cl (configuration not stated)
4. CCc1n[nH]c(C2CN(CCCOc3cccc(C)c3)CCO2)n1 (configuration not stated)

-- reply
["96.43%", "-11.46%", "-23.74%", "13.14%"]

====

Test system: Wolbachia pipientis
Assay: Anti-Wolbachia Cell-Based Screen
Assay type: functional
Set-up: scale not given: in the data most compounds retested in dose-response had high values
Conditions: 5 µM
Among all 48,000 compounds or so, about 13,000 (27%) showed an effect of 50% or more. The list shows a part of the results.
Exercise: state measured Percent Effect for each of the molecules provided.
Give bare numbers, in %.

Cc1cccc(CN2CCCC2(C(N)=O)c2cnccn2)n1 (stereo unspecified) = 94
Cc1cccc(Cc2cc(C)nc(C3CCCNC3)c2)c1 (stereo unspecified) = 70.21
Cc1[nH]c(-c2ccccc2)nc1C(=O)N1CCc2[nH]cnc2C1C(=O)O (stereo unspecified) = -27.35

Provide each entry's Percent Effect from the list below.
1. O=C(NC1CCCNC1)c1cc(COc2cccc(C(F)(F)F)c2)[nH]n1 (stereo unspecified)
2. Cl.Cl.FC(F)(F)c1cccc(-c2c[nH]c(C3CCCN3)n2)c1 (stereo unspecified)

-- reply
1. 2.713
2. -28.55

Briefly, Percent Effect measured for O=C(O)[C@]12CCCN(Cc3ccccn3)[C@@H]1CCN(c1cnccn1)C2 : -12.33
